Parameter C-term IgG: see the listing below.
target: T1, B3GNT2 (Homo sapiens, UniProt Q9NY97)
T1 construct: The respective ORFs of candidate genes [CD274 (NM_014143), MCL1 (NM_021960), JUNB (NM_002229), and B3GNT2 (NM_006577)] were synthesized; expressed in transfected cells; host or cells: A375 melanoma cells (lentiviral ORF overexpression)
T1 sequence (Q9NY97 1-397): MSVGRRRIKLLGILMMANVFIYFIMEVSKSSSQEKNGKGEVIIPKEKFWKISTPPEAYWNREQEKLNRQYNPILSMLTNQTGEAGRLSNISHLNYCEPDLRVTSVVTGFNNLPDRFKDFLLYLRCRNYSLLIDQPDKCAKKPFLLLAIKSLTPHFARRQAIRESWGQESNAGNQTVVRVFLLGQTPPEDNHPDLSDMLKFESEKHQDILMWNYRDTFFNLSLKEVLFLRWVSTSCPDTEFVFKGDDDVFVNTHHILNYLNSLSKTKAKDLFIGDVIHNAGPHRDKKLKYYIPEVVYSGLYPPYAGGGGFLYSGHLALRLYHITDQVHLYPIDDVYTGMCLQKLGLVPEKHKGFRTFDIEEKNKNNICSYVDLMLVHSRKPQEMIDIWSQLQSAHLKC
test_description: Co-IP of FLAG-tagged B3GNT2 followed by mass spectrometry
Type: cell-based
Set-up: unit not given here
settings: Co-IP followed by mass spectrometry of B3GNT2; C-term tag, IgG pull-down

>  <molecule>
KCTD5 (protein) AENHCELLSPARGGIGAGLGGGLCRRCSAGLGALAQRPGSVSKWVRLNVGGTYFLTTRQTLCRDPKSFLYRLCQADPDLDSDKDETGAYLIDRDPTYFGPVLNYLRHGKLVINKDLAEEGVLEEAEFYNITSLIKLVKDKIRERDSKTSQVPVKHVYRVLQCQEEELTQMVSTMSDGWKFEQLVSIGSSYNYGNEDQAEFLCVVSKELHNTPYGTASEPSEKAKILQERGSRM

>  <C-term IgG>
0

$$$$
>  <molecule>
CHCHD3 (protein) GGTTSTRRVTFEADENENITVVKGIRLSENVIDRMKESSPSGSKSQRYSGAYGASVSDEELKRRVAEELALEQAKKESEDQKRLKQAKELDRERAAANEQLTRAILRERICSEEERAKAKHLARQLEEKDRVLKKQDAFYKEQLARLEERSSEFYRVTTEQYQKAAEEVEAKFKRYESHPVCADLQAKILQCYRENTHQTLKCSALATQYMHCVNHAKQSMLEKGG

>  <C-term IgG>
11

$$$$
>  <molecule>
ARG1 (protein) MSAKSRTIGIIGAPFSKGQPRGGVEEGPTVLRKAGLLEKLKEQECDVKDYGDLPFADIPNDSPFQIVKNPRSVGKASEQLAGKVAEVKKNGRISLVLGGDHSLAIGSISGHARVHPDLGVIWVDAHTDINTPLTTTSGNLHGQPVSFLLKELKGKIPDVPGFSWVTPCISAKDIVYIGLRDVDPGEHYILKTLGIKYFSMTEVDRLGIGKVMEETLSYLLGRKKRPIHLSFDVDGLDPSFTPATGTPVVGGLTYREGLYITEEIYKTGLLSGLDIMEVNPSLGKTPEEVTRTVNTAVAITLACFGLAREGNHKPIDYLNPPK

>  <C-term IgG>
4

$$$$
>  <molecule>
SERPINB3 (protein) MNSLSEANTKFMFDLFQQFRKSKENNIFYSPISITSALGMVLLGAKDNTAQQIKKVLHFDQVTENTTGKAATYHVDRSGNVHHQFQKLLTEFNKSTDAYELKIANKLFGEKTYLFLQEYLDAIKKFYQTSVESVDFANAPEESRKKINSWVESQTNEKIKNLIPEGNIGSNTTLVLVNAIYFKGQWEKKFNKEDTKEEKFWPNKNTYKSIQMMRQYTSFHFASLEDVQAKVLEIPYKGKDLSMIVLLPNEIDGLQKLEEKLTAEKLMEWTSLQNMRETRVDLHLPRFKVEESYDLKDTLRTMGMVDIFNGDADLSGMTGSRGLVLSGVLHKAFVEVTEEGAEAAAATAVVGFGSSPTSTNEEFHCNHPFLFFIRQNKTNSILFYGRFSSP

>  <C-term IgG>
2

$$$$
>  <molecule>
GGCT (protein) MANSGCKDVTGPDEESFLYFAYGSNLLTERIHLRNPSAAFFCVARLQDFKLDFGNSQGKTSQTWHGGIATIFQSPGDEVWGVVWKMNKSNLNSLDEQEGVKSGMYVVIEVKVATQEGKEITCRSYLMTNYESAPPSPQYKKIICMGAKENGLPLEYQEKLKAIEPNDYTGKVSEEIEDIIKKGETQTL

>  <C-term IgG>
0

$$$$
